- TESTED ON: ECE (Cavia porcellus, UniProt P97739)
- Construct: tissue Keystone Biologicals, Cleveland, Ohio; host or cells: frozen guinea pig lungs; lubrol PX-treated lung membranes
- EXPERIMENT SUMMARY: In vitro ECE assay (inhibition of [125I]BET-1 to [125I]ET-1 conversion, lubrol-treated guinea pig lung membrane)
- Type: biochemical
- CONDITION: L-GPLGM, table of additional compounds, read-out: IC50 (in vitro ECE inhibition activity)
PROPERTY NAME: IC50 (nM)

INSERT INTO measurements (compound, readout_unit, numeric_value) VALUES
  ('CC(C)CC(CP(=O)(O)C(Cc1ccc2ccccc2c1)NC(=O)C(CCCCNC(=O)OCc1ccccc1)NC(=O)C(CC(C)C)NS(C)(=O)=O)C(=O)N[C@@H](Cc1c[nH]c2ccccc12)C(=O)O (stereo partly drawn)', 'nM', 230);

a: O=C(NC(Cc1ccc2ccccc2c1)P(=O)(O)CC1(C(=O)N[C@@H](Cc2c[nH]c3ccccc23)C(=O)O)CCCC1)OCc1ccccc1 (stereo partly drawn) [Cbz, 2-naphthylmethyl, R3 + R4 = (CH2)4]
b: CC(C)CC(CP(=O)(O)C(Cc1ccccc1)NC(=O)C(CC(C)C)NC(=O)OCc1ccccc1)C(=O)N[C@@H](Cc1c[nH]c2ccccc12)C(=O)O (stereo partly drawn)
c: CC(C)CC(NC(=O)C(CCCCNC(=O)OCc1ccccc1)NS(C)(=O)=O)P(=O)(O)CC1(C(=O)N[C@@H](Cc2c[nH]c3ccccc23)C(=O)O)CCCC1 (stereo partly drawn)
Lookup: Order the 3 compounds from highest to lowest IC50. When ranking, write the labels in the order the request describes.
Found: a, c, b
(a: 500 nM, c: 260 nM, b: 160 nM)

###

- TESTED ON: ECE (Cavia porcellus, UniProt P97739)
- Construct: tissue Keystone Biologicals, Cleveland, Ohio; host or cells: frozen guinea pig lungs; lubrol PX-treated lung membranes
- EXPERIMENT SUMMARY: In vitro ECE assay (inhibition of [125I]BET-1 to [125I]ET-1 conversion, lubrol-treated guinea pig lung membrane)
- Assay type: biochemical
- CONDITION: L-GPLGM, 2 h preincubation at 4° C., 500 pM [125I]BET-1, table of examples, read-out: ECE IC50
PROPERTY NAME: IC50 (nM)

P: CC(C)CC(CP(=O)(O)C(CC(C)C)NC(=O)[C@H](CCCCNC(=O)OCc1ccccc1)NS(C)(=O)=O)C(=O)N[C@@H](Cc1c[nH]c2ccccc12)C(=O)O (stereo partly drawn) [Example 10B]
Q: CC(C)CC(CP(=O)(O)C(Cc1ccc2ccccc2c1)NC(=O)[C@H](CCCCNC(=O)OCc1ccccc1)NS(C)(=O)=O)C(=O)N[C@@H](Cc1c[nH]c2ccccc12)C(=O)O (single isomer, unassigned) [Example 9C]
R: CC(C)CC(CP(=O)(O)C(Cc1ccc2ccccc2c1)NC(=O)[C@H](CCCCNC(=O)OCc1ccccc1)NS(C)(=O)=O)C(=O)N[C@@H](Cc1c[nH]c2ccccc12)C(=O)O (single isomer, unassigned) [Example 9A]
Lookup: Hey, can you sort those compounds up there by IC50, smallest first? Your reply should list the labels following the order given in the request.
Found: R, P, Q
(R: 65 nM, P: 1400 nM, Q: 4500 nM)

###

- TESTED ON: ECE (Cavia porcellus)
- Construct: tissue Keystone Biologicals, Cleveland, Ohio; host or cells: frozen guinea pig lungs; lubrol PX-treated lung membranes
- EXPERIMENT SUMMARY: In vitro ECE assay (inhibition of [125I]BET-1 to [125I]ET-1 conversion, lubrol-treated guinea pig lung membrane)
- Format: biochemical
- CONDITION: L-GPLGM, table of additional compounds, read-out: IC50 (in vitro ECE inhibition activity)
PROPERTY NAME: IC50 (nM)

INSERT INTO results (molecule, readout_unit, numeric_value) VALUES
  ('CC(C)C(CP(=O)(O)C(Cc1ccccc1)NC(=O)C(CCCCNC(=O)OCc1ccccc1)NC(=O)OCc1ccccc1)C(=O)N[C@@H](Cc1c[nH]c2ccccc12)C(=O)O (stereo partly drawn)', 'nM', 1100),
  ('CC(C)CC(CP(=O)(O)C(Cc1ccc2ccccc2c1)NC(=O)OCc1ccccc1)C(=O)N[C@@H](Cc1c[nH]c2ccccc12)C(=O)O (stereo partly drawn) [Cbz, 2-naphthylmethyl, H, iso-butyl]', 'nM', 300),
  ('CC(C)CC(CP(=O)(O)C(CC1CCCC1)NC(=O)OCc1ccccc1)C(=O)N[C@@H](Cc1c[nH]c2ccccc12)C(=O)O (stereo partly drawn) [Cbz, cyclopentylmethyl, H, iso-butyl]', 'nM', 1000);

1: CC(C)CC(CP(=O)(O)C(Cc1ccc2ccccc2c1)NC(=O)C(CCCCN)NS(C)(=O)=O)C(=O)N[C@@H](Cc1c[nH]c2ccccc12)C(=O)O (single isomer, unassigned)
2: CC(C)C(CP(=O)(O)C(Cc1ccc2ccccc2c1)NC(=O)C(CCCCNC(=O)OCc1ccccc1)NS(C)(=O)=O)C(=O)N[C@@H](Cc1c[nH]c2ccccc12)C(=O)O (stereo partly drawn)
3: CC(C)CC(CP(=O)(O)C(CC(C)C)NC(=O)C(CCCCNC(=O)OCc1ccccc1)NS(C)(=O)=O)C(=O)N[C@@H](Cc1c[nH]c2ccccc12)C(=O)O (stereo partly drawn)
Lookup: Descending sort on IC50 required. Present the labels in the sequence the task asks for.
Found: 3, 2, 1
(3: 1400 nM, 2: 800 nM, 1: 68 nM)

###

- TESTED ON: ECE (Cavia porcellus, UniProt P97739)
- Construct: tissue Keystone Biologicals, Cleveland, Ohio; host or cells: frozen guinea pig lungs; lubrol PX-treated lung membranes
- EXPERIMENT SUMMARY: In vitro ECE assay (inhibition of [125I]BET-1 to [125I]ET-1 conversion, lubrol-treated guinea pig lung membrane)
- Type: biochemical
- CONDITION: L-GPLGM, table of additional compounds, read-out: IC50 (in vitro ECE inhibition activity)
PROPERTY NAME: IC50 (nM)

INSERT INTO measurements (compound, numeric_value) VALUES
  ('CC(C)CC(CP(=O)(O)C(CCCCN)NC(=O)OCc1ccccc1)C(=O)N[C@@H](Cc1c[nH]c2ccccc12)C(=O)O (some centres unmarked)', 400);

P: CC(C)CC(CP(=O)(O)C(CCCCO)NC(=O)OCc1ccccc1)C(=O)N[C@@H](Cc1c[nH]c2ccccc12)C(=O)O (some centres unmarked)
Q: CC(C)CC(CP(=O)(O)C(Cc1ccccc1)NC(=O)C(CCCCNC(=O)OCc1ccccc1)NS(C)(=O)=O)C(=O)N[C@@H](Cc1c[nH]c2ccccc12)C(=O)O (some centres unmarked)
R: CC(C)C(CP(=O)(O)C(Cc1ccccc1)NC(=O)OCc1ccccc1)C(=O)N[C@@H](Cc1c[nH]c2ccccc12)C(=O)O (some centres unmarked)
Lookup: Falling order of IC50, please. List each label, following the requested order.
Found: R, Q, P

###

- TESTED ON: ECE (Cavia porcellus)
- Construct: tissue Keystone Biologicals, Cleveland, Ohio; host or cells: frozen guinea pig lungs; lubrol PX-treated lung membranes
- Sequence (P97739 1-754): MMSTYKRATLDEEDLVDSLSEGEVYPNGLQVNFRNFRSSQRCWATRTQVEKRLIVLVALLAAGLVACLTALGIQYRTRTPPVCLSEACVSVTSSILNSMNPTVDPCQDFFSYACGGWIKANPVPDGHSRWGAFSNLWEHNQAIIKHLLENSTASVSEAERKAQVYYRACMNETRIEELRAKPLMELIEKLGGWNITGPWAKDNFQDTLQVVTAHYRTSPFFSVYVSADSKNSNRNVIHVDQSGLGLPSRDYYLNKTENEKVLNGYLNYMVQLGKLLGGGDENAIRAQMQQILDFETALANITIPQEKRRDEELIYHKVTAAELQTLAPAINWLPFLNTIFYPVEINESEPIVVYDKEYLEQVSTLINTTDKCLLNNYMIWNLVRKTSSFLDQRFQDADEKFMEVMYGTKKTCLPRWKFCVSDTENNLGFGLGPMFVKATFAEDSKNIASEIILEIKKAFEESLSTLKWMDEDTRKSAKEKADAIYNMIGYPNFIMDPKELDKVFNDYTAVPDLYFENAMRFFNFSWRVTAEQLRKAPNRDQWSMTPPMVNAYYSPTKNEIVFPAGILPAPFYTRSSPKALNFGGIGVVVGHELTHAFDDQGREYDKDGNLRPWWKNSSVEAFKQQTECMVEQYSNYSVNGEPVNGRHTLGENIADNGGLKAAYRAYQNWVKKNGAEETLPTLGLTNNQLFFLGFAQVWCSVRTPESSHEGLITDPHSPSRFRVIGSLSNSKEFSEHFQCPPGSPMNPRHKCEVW
- EXPERIMENT SUMMARY: In vitro ECE assay (inhibition of [125I]BET-1 to [125I]ET-1 conversion, lubrol-treated guinea pig lung membrane)
- Assay type: biochemical
- CONDITION: L-GPLGM, 2 h preincubation at 4° C., 500 pM [125I]BET-1, table of examples, read-out: ECE IC50
pIC50: −log10 of the molar value.
PROPERTY NAME: pIC50

Examples from the recorded data:
INSERT INTO measurements (compound, numeric_value) VALUES
  ('O=C(NC(Cc1ccc(O)cc1)P(=O)(O)CC1(C(=O)N[C@@H](Cc2c[nH]c3ccccc23)C(=O)O)CCCC1)OCc1ccccc1 (stereo partly drawn)', 7.07),
  ('O=C(NC(Cc1ccc(C(=O)N2CCOCC2)cc1)P(=O)(O)CC1(C(=O)N[C@@H](Cc2c[nH]c3ccccc23)C(=O)O)CCCC1)OCc1ccccc1 (stereo partly drawn)', 7.30),
  ('O=C(N[C@@H](Cc1ccccc1)P(=O)(O)CC1(C(=O)N[C@@H](Cc2c[nH]c3ccccc23)C(=O)O)CCCC1)c1ccccc1', 6.60);

1: CC(C)C(CP(=O)(O)C(Cc1ccccc1)NC(=O)[C@H](CCC(N)=O)NC(=O)OCc1ccccc1)C(=O)N[C@@H](Cc1c[nH]c2ccccc12)C(=O)O (stereo partly drawn) [Example 10C]
2: COc1ccc(CC(NC(=O)OCc2ccccc2)P(=O)(O)CC2(C(=O)N[C@@H](Cc3c[nH]c4ccccc34)C(=O)O)CCCC2)cc1 (stereo partly drawn)
3: CS(=O)(=O)N[C@@H](CCCCNC(=O)OCc1ccccc1)C(=O)NC(Cc1ccc(O)cc1)P(=O)(O)CC1(C(=O)N[C@@H](Cc2c[nH]c3ccccc23)C(=O)O)CCCC1 (stereo partly drawn)
Lookup: Form: Sort by [pIC50] Order [ ascending ] Answer by writing out the labels in the requested order.
Found: 1, 2, 3
(1: 6.70, 2: 6.94, 3: 7.26)
